Measured values drawn from ChEMBL document CHEMBL5724914 for this set.

Settings: human gut metagenome, 24 h, 2 µM; note: call rule not given here
PROPERTY NAME: Bacterial Biotransformation

Any idea what its Bacterial Biotransformation is? The compound is Br.CN1CCC[C@@H]1Cc1c[nH]c2ccc(CCS(=O)(=O)c3ccccc3)cc12 [ELETRIPTAN HYDROBROMIDE]
Compound NOT metabolized

// Bacterial Biotransformation lookup, key: O=C([O-])C[C@H](O)C[C@H](O)/C=C/c1c(C2CC2)nc2ccccc2c1-c1ccc(F)cc1.O=C([O-])C[C@H](O)C[C@H](O)/C=C/c1c(C2CC2)nc2ccccc2c1-c1ccc(F)cc1.[Ca+2]
Compound NOT metabolized

# query: Bacterial Biotransformation of entry COCCCC/C(=N\OCCN)c1ccc(C(F)(F)F)cc1.O=C(O)/C=C\C(=O)O [FLUVOXAMINE MALEATE]
Compound metabolized

Query (compound): CCN(C(C)=O)c1cccc(-c2ccnc3c(C#N)cnn23)c1 ; field requested: Bacterial Biotransformation
Compound metabolized

Fill in: Bacterial Biotransformation of COc1ccc(C(CN(C)C)C2(O)CCCCC2)cc1 (stereo not given) is ___
Compound NOT metabolized

New cases:
Quick one: Bacterial Biotransformation of Nc1nc(NC2CC2)c2ncn([C@H]3C=C[C@@H](CO)C3)c2n1.Nc1nc(NC2CC2)c2ncn([C@H]3C=C[C@@H](CO)C3)c2n1.O=S(=O)(O)O [ABACAVIR SULFATE] ?
Compound metabolized

Look up Bacterial Biotransformation for this compound: O=C1N=C([O-])NC1(c1ccccc1)c1ccccc1.[Na+] [PHENYTOIN SODIUM]
Compound metabolized

# query: Bacterial Biotransformation of entry CCN(CC)CCOC(=O)C1(C2CCCCC2)CCCCC1
Compound NOT metabolized

Query: Bacterial Biotransformation; subject: CC(N)C12CC3CC(CC(C3)C1)C2 (stereo not given)
Compound NOT metabolized

Which value of Bacterial Biotransformation has been reported for Cc1cc2c(s1)Nc1ccccc1N=C2N1CCN(C)CC1 in the records?
Compound NOT metabolized

Give the measured Bacterial Biotransformation of CCc1cccc2c3c([nH]c12)C(CC)(CC(=O)O)OCC3 (stereo not given) .
Compound metabolized

I am curious: what Bacterial Biotransformation value has been reported for O=P1(N(CCCl)CCCl)NCCCO1 (stereo not given) [CYCLOPHOSPHAMIDE ANHYDROUS] ?
Compound NOT metabolized

State the recorded Bacterial Biotransformation for this entry: CCCC(C)(COC(N)=O)COC(=O)NC(C)C (stereo not given)
Compound metabolized
